I'd appreciate it if you could supply inhibition at 10 µM values for the items below.
# tested.on: IKZF2 (Homo sapiens, UniProt Q96SW2+Q9UKS7)
# Sequence (Q9UKS7 whole entry): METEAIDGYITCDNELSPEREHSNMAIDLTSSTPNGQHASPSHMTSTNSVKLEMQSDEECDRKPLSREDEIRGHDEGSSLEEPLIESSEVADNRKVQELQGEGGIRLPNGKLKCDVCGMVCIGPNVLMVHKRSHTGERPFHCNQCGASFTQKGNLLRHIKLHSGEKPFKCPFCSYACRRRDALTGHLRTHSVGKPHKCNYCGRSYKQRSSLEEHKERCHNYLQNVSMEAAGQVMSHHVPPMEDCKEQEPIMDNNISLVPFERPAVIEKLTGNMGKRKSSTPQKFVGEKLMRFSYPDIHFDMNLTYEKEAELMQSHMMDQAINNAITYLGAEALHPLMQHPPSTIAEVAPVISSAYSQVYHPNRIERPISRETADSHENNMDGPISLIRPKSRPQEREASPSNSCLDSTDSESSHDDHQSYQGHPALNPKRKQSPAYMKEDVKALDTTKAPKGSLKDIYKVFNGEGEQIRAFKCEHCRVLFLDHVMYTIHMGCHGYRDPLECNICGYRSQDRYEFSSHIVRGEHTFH
# Sequence (Q96SW2 whole entry): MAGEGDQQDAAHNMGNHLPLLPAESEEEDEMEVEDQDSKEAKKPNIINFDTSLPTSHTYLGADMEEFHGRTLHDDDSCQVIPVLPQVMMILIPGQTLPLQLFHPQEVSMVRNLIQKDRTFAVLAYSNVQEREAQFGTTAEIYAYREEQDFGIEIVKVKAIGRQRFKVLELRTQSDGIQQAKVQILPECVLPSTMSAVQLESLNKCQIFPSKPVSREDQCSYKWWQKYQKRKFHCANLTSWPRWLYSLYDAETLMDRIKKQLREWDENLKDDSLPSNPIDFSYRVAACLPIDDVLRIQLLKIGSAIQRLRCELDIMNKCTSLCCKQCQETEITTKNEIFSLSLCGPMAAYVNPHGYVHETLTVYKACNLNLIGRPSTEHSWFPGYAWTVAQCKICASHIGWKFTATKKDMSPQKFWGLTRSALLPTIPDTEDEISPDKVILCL
# Sequence (Q16531 whole entry partner): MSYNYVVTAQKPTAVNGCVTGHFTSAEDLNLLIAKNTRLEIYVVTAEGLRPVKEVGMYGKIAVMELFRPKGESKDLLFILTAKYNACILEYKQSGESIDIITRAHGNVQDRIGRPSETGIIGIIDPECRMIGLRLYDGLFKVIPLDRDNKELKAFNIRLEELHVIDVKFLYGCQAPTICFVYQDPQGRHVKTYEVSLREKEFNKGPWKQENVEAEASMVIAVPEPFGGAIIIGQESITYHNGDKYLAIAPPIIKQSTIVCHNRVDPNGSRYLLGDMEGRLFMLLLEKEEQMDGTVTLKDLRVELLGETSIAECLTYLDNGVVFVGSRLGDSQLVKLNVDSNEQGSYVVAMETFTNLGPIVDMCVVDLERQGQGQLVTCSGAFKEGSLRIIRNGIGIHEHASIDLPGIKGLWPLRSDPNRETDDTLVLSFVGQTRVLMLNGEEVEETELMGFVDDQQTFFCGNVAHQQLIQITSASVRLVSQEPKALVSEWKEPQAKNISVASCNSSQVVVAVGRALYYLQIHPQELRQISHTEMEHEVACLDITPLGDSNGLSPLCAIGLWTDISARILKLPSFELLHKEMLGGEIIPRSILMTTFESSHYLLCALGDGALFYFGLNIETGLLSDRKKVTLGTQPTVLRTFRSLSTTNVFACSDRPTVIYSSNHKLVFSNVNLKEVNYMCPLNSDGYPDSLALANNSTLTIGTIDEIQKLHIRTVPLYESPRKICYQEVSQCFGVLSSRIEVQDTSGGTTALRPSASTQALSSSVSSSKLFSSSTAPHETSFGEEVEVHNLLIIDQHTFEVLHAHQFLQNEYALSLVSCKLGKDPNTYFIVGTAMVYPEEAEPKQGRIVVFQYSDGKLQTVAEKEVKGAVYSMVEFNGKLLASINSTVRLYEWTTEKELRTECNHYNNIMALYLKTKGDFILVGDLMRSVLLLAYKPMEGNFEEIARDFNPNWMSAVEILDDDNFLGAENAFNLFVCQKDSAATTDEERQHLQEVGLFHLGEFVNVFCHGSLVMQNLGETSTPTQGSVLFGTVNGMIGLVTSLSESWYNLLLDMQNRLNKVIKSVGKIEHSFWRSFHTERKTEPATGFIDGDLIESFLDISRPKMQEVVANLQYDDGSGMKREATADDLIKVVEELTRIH
# test.summary: Prolabel quantification of IKZF2 protein levels in 293GT cells
# Type: cell-based
# measurement.parameters: 24 h, 10 μM, 24 h, 293GT cells; read-out: IKZF2 % protein reduction at 10 μM, 24 h
Give bare numbers, in %.

{"columns": ["compound", "inhibition at 10 µM, %"],
 "data": [
  ["O=C1CCC(N2Cc3cc(C4CCN(Cc5cnc(N6CCOCC6)nc5)CC4)ccc3C2=O)C(=O)N1 (stereo not drawn)", 75],
  ["O=C1CCC(N2Cc3cc(C4CCN(Cc5ccc(Cl)cc5Cl)CC4)ccc3C2=O)C(=O)N1 (stereo not drawn)", 50],
  ["O=C1CCC(N2Cc3cc(C4CCN(Cc5ccc6nccnc6c5)CC4)ccc3C2=O)C(=O)N1 (stereo not drawn)", 70],
  ["CCn1ccc(CN2CCC(c3ccc4c(c3)CN(C3CCC(=O)NC3=O)C4=O)CC2)n1 (stereo not drawn)", 60],
  ["O=C1CCC(N2Cc3cc(C4CCN(Cc5ccc6c(c5)OCCO6)CC4)ccc3C2=O)C(=O)N1 (stereo not drawn)", 80]
]}

Hi! Can you tell me inhibition at 10 µM for each of these compounds?
1. O=C(O)Cc1ccc(CN2CCC(c3ccc4c(c3)CN(C3CCC(=O)NC3=O)C4=O)CC2)cc1 (stereo not drawn)
2. Cn1cc(CN2CCC(c3ccc4c(c3)CN(C3CCC(=O)NC3=O)C4=O)CC2)cn1 (stereo not drawn)
3. O=C1CCC(N2Cc3cc(C4CCN(Cc5ccc6cc[nH]c6n5)CC4)ccc3C2=O)C(=O)N1 (stereo not drawn)
4. O=C1CCC(N2Cc3cc(C4CCN(CC5CCC5)CC4)ccc3C2=O)C(=O)N1 (stereo not drawn)

Marked response:
1. 60
2. 60
3. 80
4. 60
